Reference source: PubChem BioAssay

Reported values of percent response of DMSO control for individual entries
- PROCEDURE_SUMMARY: TOR pathway RTG branch CIT2 reporter changes – S. cerevisiae, GFP fusion, multiplex flow cytometry, primary screen (AID 1870);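 note: barcoded CIT2-GFP strain pooled with four other GFP strains with rapamycin as positive control; median GFP fluorescence per well over plate mean of DMSO wells so 100% = DMSO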
- SETUP_CONDITIONS: S. cerevisiae CIT2-GFP expression, 3 h, at 10 µM, hits give high values
MEASURE_NAME: percent response of DMSO control (%)

[
  {
    "COMPOUND": "COc1ccc(-c2nc3c(=O)n(C)c(=O)[nH]c3n2CCc2ccccc2)cc1",
    "MEASURE_NAME": "percent response of DMSO control",
    "UNIT": "%",
    "OBSERVED_MEASUREMENT": 115
  },
  {
    "COMPOUND": "O=C(CCC(=O)c1cccs1)c1cccs1",
    "MEASURE_NAME": "percent response of DMSO control",
    "UNIT": "%",
    "OBSERVED_MEASUREMENT": 107
  },
  {
    "COMPOUND": "O=C(CS(=O)(=O)c1ccccc1)c1ccc2c(c1)OCCO2",
    "MEASURE_NAME": "percent response of DMSO control",
    "UNIT": "%",
    "OBSERVED_MEASUREMENT": 100
  },
  {
    "COMPOUND": "COc1ccc(C(=O)Nc2ccccc2C(=O)NC(Cc2c[nH]c3ccccc23)C(=O)O)cc1 (stereo unspecified)",
    "MEASURE_NAME": "percent response of DMSO control",
    "UNIT": "%",
    "OBSERVED_MEASUREMENT": 95.4
  },
  {
    "COMPOUND": "O=C(O)c1ccc(OCCn2ccnc2)cc1",
    "MEASURE_NAME": "percent response of DMSO control",
    "UNIT": "%",
    "OBSERVED_MEASUREMENT": 106
  },
  {
    "COMPOUND": "CC1(C)CC(=O)c2cnc(NC(=O)C3CCCC3)nc2C1",
    "MEASURE_NAME": "percent response of DMSO control",
    "UNIT": "%",
    "OBSERVED_MEASUREMENT": 109
  },
  {
    "COMPOUND": "CCCCNc1ccc(C(=O)OCCN(C)C)cc1",
    "MEASURE_NAME": "percent response of DMSO control",
    "UNIT": "%",
    "OBSERVED_MEASUREMENT": 98.9
  },
  {
    "COMPOUND": "CC(=O)OCC(=O)[C@@]1(O)[C@H](C)C[C@H]2[C@@H]3CCC4=CC(=O)C=C[C@]4(C)[C@@]3(F)[C@@H](O)C[C@@]21C",
    "MEASURE_NAME": "percent response of DMSO control",
    "UNIT": "%",
    "OBSERVED_MEASUREMENT": 107
  },
  {
    "COMPOUND": "COc1ccc(/C=C(/C#N)c2cccnc2)cc1OC",
    "MEASURE_NAME": "percent response of DMSO control",
    "UNIT": "%",
    "OBSERVED_MEASUREMENT": 94.9
  },
  {
    "COMPOUND": "CCOC(=O)C(Cc1cc(C(C)=O)ccc1OC(C)C)C(=O)OCC",
    "MEASURE_NAME": "percent response of DMSO control",
    "UNIT": "%",
    "OBSERVED_MEASUREMENT": 110
  },
  {
    "COMPOUND": "Fc1ccc(NC(=S)Nc2ccccc2Cl)cc1",
    "MEASURE_NAME": "percent response of DMSO control",
    "UNIT": "%",
    "OBSERVED_MEASUREMENT": 106
  }
]
